- measurementTarget: CDK2/CycE (Homo sapiens, UniProt P24941)
- Construct: GST
- testSummary: CDK2/CycE kinase assay
- reportedConditions: 0.5 μM ATP, 22° C., 10 min
property: IC50 (nM)
Enter your answer as a number in nM; do not include the unit.

Example results:
molecule: CCOC(=O)N=S(C)(=O)c1ccc2cc1NCCCCNc1nc(ncc1Br)N2 (single isomer, unassigned) [Example 3]
IC50 [nM]: 990
//
molecule: CCNC(=O)N=S(C)(=O)c1ccc2cc1NCCCCNc1nc(ncc1Br)N2 (racemic)
IC50 [nM]: 71
//
molecule: CCOC(=O)N=S(C)(=O)c1ccc2cc1NCCCCNc1nc(ncc1I)N2 (racemic)
IC50 [nM]: 319

Lookup: Which measured IC50 value corresponds to CCOC(=O)N=S(C)(=O)c1ccc2cc1NCCCCNc1nc(ncc1Br)N2 (single isomer, unassigned) [Example 2] ?
Found: 229

Lookup: Which measured IC50 value corresponds to CCOC(=O)N=S(C)(=O)c1ccc2cc1NCCCCNc1nc(ncc1Br)N2 (racemic) [Example 1] ?
Found: 323
